Source listed as paper PMC10709440.

- measurement-target: Drosophila OR85b (Drosophila melanogaster)
- Construct: expressed in transfected cells
- Sequence (Q9VHQ7 whole entry): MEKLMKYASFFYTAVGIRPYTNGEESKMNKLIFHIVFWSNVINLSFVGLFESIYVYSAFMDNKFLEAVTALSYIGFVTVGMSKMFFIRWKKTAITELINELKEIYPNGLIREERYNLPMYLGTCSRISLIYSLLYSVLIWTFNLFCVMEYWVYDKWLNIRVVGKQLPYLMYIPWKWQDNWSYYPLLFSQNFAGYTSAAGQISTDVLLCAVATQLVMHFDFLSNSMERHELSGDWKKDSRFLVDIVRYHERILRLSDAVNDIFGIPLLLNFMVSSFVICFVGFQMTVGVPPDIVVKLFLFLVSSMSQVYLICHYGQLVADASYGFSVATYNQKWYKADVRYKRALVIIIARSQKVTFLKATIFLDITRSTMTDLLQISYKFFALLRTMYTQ
- Sequence (Q9VNB5 whole entry partner): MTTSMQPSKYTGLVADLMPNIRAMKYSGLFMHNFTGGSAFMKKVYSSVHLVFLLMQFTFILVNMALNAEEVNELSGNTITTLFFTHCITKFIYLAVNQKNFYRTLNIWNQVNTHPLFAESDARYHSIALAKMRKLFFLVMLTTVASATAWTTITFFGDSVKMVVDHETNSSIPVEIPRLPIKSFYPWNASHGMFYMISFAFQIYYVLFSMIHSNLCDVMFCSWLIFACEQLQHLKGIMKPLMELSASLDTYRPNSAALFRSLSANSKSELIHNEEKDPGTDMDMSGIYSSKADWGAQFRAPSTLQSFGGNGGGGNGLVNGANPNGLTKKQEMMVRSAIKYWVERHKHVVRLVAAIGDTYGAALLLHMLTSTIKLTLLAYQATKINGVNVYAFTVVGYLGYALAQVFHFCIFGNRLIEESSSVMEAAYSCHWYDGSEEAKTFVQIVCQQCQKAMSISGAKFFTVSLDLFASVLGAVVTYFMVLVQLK
- procedure-summary: Calcium ion fluorescence (GCaMP6) assay, OR85b stable HEK293 cell line
- Assay type: cell-based
- experimental-parameters: HEK293, read-out: OR85b response (VUAA1-normalized response)
Provide the reported activation at 10 µM of each item.
Write it as a number; the unit % goes unstated.

compound "CC(=O)c1ccccc1" , activation at 10 µM observed: 0

compound CCOC(=O)CC [ethyl propionate] , activation at 10 µM observed: 0

compound "O=Cc1ccccc1" , activation at 10 µM observed: 0

compound "Cc1ccc(C)c(C)c1" , activation at 10 µM observed: 7.41

compound "Cc1cccc(O)c1" , activation at 10 µM observed: 0

compound "C=CCc1ccc(O)c(OC)c1" , activation at 10 µM observed: 0

compound CC1=CCC2CC1C2(C)C (stereo not shown) , activation at 10 µM observed: 0

compound CCCCC(C)O (stereo not shown) , activation at 10 µM observed: 0

compound C=C1CC/C=C(\C)CC[C@@H]2[C@@H]1CC2(C)C [(-)-trans-caryophyllene] , activation at 10 µM observed: 0

compound CCCCCC(=O)OCC [ethyl hexanoate] , activation at 10 µM observed: 0

compound CCCC(=O)OCC [ethyl butyrate] , activation at 10 µM observed: 0

compound CCCCCCCCC(CO)CCCCCC (stereo not shown) , activation at 10 µM observed: 7

compound "COc1cccc(OC)c1" , activation at 10 µM observed: 0

compound CC(=O)OCC(C)C [isobutyl acetate] , activation at 10 µM observed: 0

compound CCCC(O)CC (stereo not shown) , activation at 10 µM observed: 10

compound "CCCCCO" , activation at 10 µM observed: 0

compound CCCCCC(C)O (stereo not shown) , activation at 10 µM observed: 0

compound CCOC(=O)c1ccccc1 [ethyl benzoate] , activation at 10 µM observed: 0

compound CC(=O)OCCC(C)C [isopentyl acetate] , activation at 10 µM observed: 7

compound "CC1=CC[C@@H](C(C)(C)O)CC1" , activation at 10 µM observed: 0

compound "CCCCCC(C)=O" , activation at 10 µM observed: 20

compound "CCCCCCCCCC=O" , activation at 10 µM observed: 0

compound "CCCCC(C)=O" , activation at 10 µM observed: 6

compound CC1=CCC2C(C1)C2(C)C (stereo not shown) , activation at 10 µM observed: 0

compound C=C1CCC2CC1C2(C)C (stereo not shown) , activation at 10 µM observed: 10

compound "Cc1ccc(O)cc1" , activation at 10 µM observed: 0

compound C=CC(O)CCCCC (stereo not shown) , activation at 10 µM observed: 0

compound "CCCCCCCO" , activation at 10 µM observed: 0

compound C=CC(O)C/C=C\CC (stereo not shown) , activation at 10 µM observed: 9

compound "CCc1ccccc1" , activation at 10 µM observed: 0

compound C=C1CC[C@H]2O[C@]2(C)CC[C@@H]2[C@@H]1CC2(C)C [(-)-caryophyllene oxide] , activation at 10 µM observed: 0

compound "CCCCCC(=O)CC" , activation at 10 µM observed: 0

compound CCCCOC(C)=O [butyl acetate] , activation at 10 µM observed: 0

compound CCCCCC(O)CC (stereo not shown) , activation at 10 µM observed: 0
